Tested on: NCI-H1975
Assay: Cytotoxicity against human NCI-H1975 cells assessed as inhibition of cell viability incubated for 48 hrs by MTT assay
Format: functional, cell-based
Details: NCI-H1975, 48 h
OUTCOME_MEASURE: IC50

[
  {
    "MOLECULE": "C1=CCC(P(c2ccccc2)c2ccccc2)C=C1 (configuration not stated)",
    "OUTCOME_MEASURE": "IC50",
    "ASSAY_VALUE": "> 100 µM"
  },
  {
    "MOLECULE": "CC(C)[C@]12O[C@H]1[C@@H]1O[C@]13[C@]1(O[C@H]1C[C@H]1C4=C(CC[C@@]13C)C(=O)OC4)[C@]2(O)COC(=O)CCCC[P+](c1ccccc1)(c1ccccc1)c1ccccc1",
    "OUTCOME_MEASURE": "IC50",
    "ASSAY_VALUE": "> 100 µM"
  },
  {
    "MOLECULE": "CC(C)[C@]12O[C@H]1[C@@H]1O[C@]13[C@]1(O[C@H]1C[C@H]1C4=C(CC[C@@]13C)C(=O)OC4)[C@]2(O)C=O",
    "OUTCOME_MEASURE": "IC50",
    "ASSAY_VALUE": "> 50 µM"
  },
  {
    "MOLECULE": "C[n+]1ccc(/C=C/c2c[nH]c3ccccc23)cc1",
    "OUTCOME_MEASURE": "IC50",
    "ASSAY_VALUE": "> 50 µM"
  },
  {
    "MOLECULE": "CC(C)[C@]12O[C@H]1[C@@H]1O[C@]13[C@]1(O[C@H]1C[C@H]1C4=C(CC[C@@]13C)C(=O)OC4)[C@]2(O)COC(=O)CCCCC[P+](c1ccccc1)(c1ccccc1)c1ccccc1",
    "OUTCOME_MEASURE": "IC50",
    "ASSAY_VALUE": "> 100 µM"
  },
  {
    "MOLECULE": "CC(C)[C@]12O[C@H]1[C@@H]1O[C@]13[C@]1(O[C@H]1C[C@H]1C4=C(CC[C@@]13C)C(=O)OC4)[C@]2(O)COC(=O)CCCCCC[P+](c1ccccc1)(c1ccccc1)c1ccccc1",
    "OUTCOME_MEASURE": "IC50",
    "ASSAY_VALUE": "> 30 µM"
  },
  {
    "MOLECULE": "CC(C)[C@]12O[C@H]1[C@@H]1O[C@]13[C@]1(O[C@H]1C[C@H]1C4=C(CC[C@@]13C)C(=O)OC4)[C@]2(O)CO",
    "OUTCOME_MEASURE": "IC50",
    "ASSAY_VALUE": "> 100 µM"
  }
]

---

Test: Cytotoxicity against human BEAS-2B cells assessed as inhibition of cell viability incubated for 48 hrs by MTT assay
Assay type: toxicity, cell-based
OUTCOME_MEASURE: IC50 at 48 h

[
  {
    "MOLECULE": "CC(C)[C@]12O[C@H]1[C@@H]1O[C@]13[C@]1(O[C@H]1C[C@H]1C4=C(CC[C@@]13C)C(=O)OC4)[C@@H]2OC(=O)CCCCC[P+](c1ccccc1)(c1ccccc1)c1ccccc1.[Br-]",
    "ASSAY_VALUE": "> 10 µM"
  },
  {
    "MOLECULE": "C1=CCC(P(c2ccccc2)c2ccccc2)C=C1 (stereo unspecified)",
    "ASSAY_VALUE": "> 100 µM"
  },
  {
    "MOLECULE": "CC(C)[C@]12O[C@H]1[C@@H]1O[C@]13[C@]1(O[C@H]1C[C@H]1C4=C(CC[C@@]13C)C(=O)OC4)[C@]2(O)COC(=O)CCCCCC[P+](c1ccccc1)(c1ccccc1)c1ccccc1",
    "ASSAY_VALUE": "> 30 µM"
  },
  {
    "MOLECULE": "CC(C)[C@]12O[C@H]1[C@@H]1O[C@]13[C@]1(O[C@H]1C[C@H]1C4=C(CC[C@@]13C)C(=O)OC4)[C@]2(O)C=O",
    "ASSAY_VALUE": "> 100 µM"
  },
  {
    "MOLECULE": "CC(C)[C@]12O[C@H]1[C@@H]1O[C@]13[C@]1(O[C@H]1C[C@H]1C4=C(CC[C@@]13C)C(=O)OC4)[C@]2(O)CO",
    "ASSAY_VALUE": "> 100 µM"
  },
  {
    "MOLECULE": "CC(C)[C@]12O[C@H]1[C@@H]1O[C@]13[C@]1(O[C@H]1C[C@H]1C4=C(CC[C@@]13C)C(=O)OC4)[C@]2(O)COC(=O)CCCC[P+](c1ccccc1)(c1ccccc1)c1ccccc1",
    "ASSAY_VALUE": "> 100 µM"
  }
]
